# study.target: σ2 receptor (Rattus norvegicus, UniProt Q5U3Y7)
# Sequence (Q5U3Y7 whole entry): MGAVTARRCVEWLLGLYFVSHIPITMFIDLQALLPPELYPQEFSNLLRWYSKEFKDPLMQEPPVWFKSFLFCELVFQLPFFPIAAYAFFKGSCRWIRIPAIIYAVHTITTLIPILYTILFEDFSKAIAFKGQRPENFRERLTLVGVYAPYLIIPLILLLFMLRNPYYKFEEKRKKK
# assay.overview: σ2 receptor binding assay, [3H]DTG, rat liver membrane homogenates
# Design: conducted using rat liver membrane homogenates; from tissue; host or cells: rat liver membrane homogenates
# measurement.setup: homogenates of rat liver; mean ± SEM; read-out: σ2 (Ki)
measured.endpoint: Ki
Put down the number, then write its unit next to it.

What value of Ki has been recorded for this entry: COc1ccc(C(=O)C2CCN(C3CN(Cc4ccccc4)CCC3O)CC2)cc1 (stereo not shown) [Compound 16g]
8.54 µM

====

# study.target: σ1 receptor (Cavia porcellus, UniProt Q60492)
# Construct: using guinea pig brain membrane homogenates; from tissue; host or cells: guinea pig brain membrane homogenates
# Sequence (Q60492 whole entry): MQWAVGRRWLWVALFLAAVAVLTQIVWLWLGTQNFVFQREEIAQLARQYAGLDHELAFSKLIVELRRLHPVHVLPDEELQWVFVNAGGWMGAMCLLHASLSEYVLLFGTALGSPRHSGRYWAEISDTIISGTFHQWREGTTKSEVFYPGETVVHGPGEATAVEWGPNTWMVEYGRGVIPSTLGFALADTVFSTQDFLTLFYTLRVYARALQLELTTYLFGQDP
# assay.overview: σ1 receptor binding assay, (+)-[3H]pentazocine, guinea pig brain membranes
# measurement.setup: Table 4, Ki values of VAChT specific compounds; tissue not given; read-out: Sigma-1 σ1
measured.endpoint: pKi
In textbook form, pKi equals minus log to base ten of the concentration in mol/L.

[
  {
    "molecule": "COc1ccc(C(=O)C2CCN(C3CN(Cc4ccccc4)CCC3O)CC2)cc1 (stereo not shown) [WW-1-109]",
    "study.target": "σ1 receptor (Cavia porcellus, UniProt Q60492)",
    "pKi": 6.68
  },
  {
    "molecule": "Nc1cccc2c1CC(N1CCC(C(=O)c3ccc(F)cc3)CC1)C(O)C2 (single isomer, unassigned) [WW-1-88-2]",
    "study.target": "σ1 receptor (Cavia porcellus, UniProt Q60492)",
    "pKi": 5.45
  },
  {
    "molecule": "COc1ccc(C(=O)C2CCN(C3Cc4ccccc4CC3O)CC2)cc1 (stereo not shown) [DZT-I-107]",
    "study.target": "σ1 receptor (Cavia porcellus, UniProt Q60492)",
    "pKi": 6.88
  }
]

Next, consider the following molecule.
Entry COc1ccc(C(=O)C2CCN(C3CN(Cc4cccnc4)CCC3O)CC2)cc1 (stereo not shown) [WW-III-25] has what pKi?
5.65

Source of measurements: patent US8658131B2
